Recorded values, source PubChem BioAssay AID624297.

# test-protocol: A quantitative high throughput screen for small molecules that induce DNA re-replication in SW480 colon adenocarcinoma cells. Also: nearly all actives have a fitted effect of over 55% in size.
# conditions: Hoechst DNA content imaging, 48 h; series mostly up to 46.1 µM
# Excerpt: H Molecular Libraries Probe Production Network [MLPCN] NIH Chemical Genomics Center [NCGC] […] To identify compounds that induce re-replication in normal cells, an image-based assay was used to measure DNA content of nuclei, as detected by the fluorescent DNA binding dye, Hoechst. Cell nuclei were imaged by a fluorescence scanning plate imager and compounds that induce DNA re-replication were identified by the increase of nuclei with elevated fluorescence intensity […]
About 6,200 (1.8%) of roughly 340,000 compounds were called active. Not shown: some 10% with an inconclusive outcome. Calls follow the shape of the dose curve; as a rule, active = well fitted activation curve with a large enough effect; inconclusive = small, poorly fitted or top-dose-only effect; inactive = no such curve, though single readings can be large or run the other way. This excerpt belongs to a sample that is enriched for actives.
Select the correct class. Options are label 1 (active), label 0 (inactive) and nothing else.

Cc1ccc(S(=O)(=O)NC[C@H]2O[C@@H](n3cnc4c(N)ncnc43)[C@H](O)[C@@H]2O)s1
label 0
COc1ccc(NC(=O)CSc2nc3ccccc3c(=O)n2C)cc1
label 0
CC(=O)Nc1nonc1-c1nc2ccccc2n1Cc1ccccn1
label 0

Task item: Can you look up the reported call for CC[C@]1(C(=O)OC)[C@H]2C(=O)N(Cc3ccccc3)C(=O)[C@H]2[C@H]2CN=C(SCc3ccc(Cl)cc3)N21 for me?
Reply: label 0

Task item: Can you look up the reported call for COc1ccc(C)c(Cn2c(-c3nonc3N)nc3ccccc32)c1 for me?
Reply: label 1

* * *

# test-protocol: A quantitative high throughput screen for small molecules that induce DNA re-replication in SW480 colon adenocarcinoma cells. Also: nearly all actives have a fitted effect of over 55% in size.
# conditions: Hoechst DNA content imaging, 48 h; series mostly up to 46.1 µM
Screen size: about 340,000 compounds; about 6,200 (1.8%) were called active. Another 10% or so got no clear call; they are omitted. The call rests on the fitted dose curve; in most records, active means well fitted activation curve with a large enough effect; inconclusive means small, poorly fitted or top-dose-only effect; inactive means no such curve, though single readings can be large or run the other way. The sample as a whole holds a higher share of actives than the screen did.
Select the correct class. Options are active, inactive and nothing else.

COC(=O)c1ccccc1NC(=O)Cc1ccccc1OC
inactive
COc1ccccc1CC(=O)Nc1ccc(F)cc1F
inactive
Cc1ccc(-n2c(O)c(C=Nc3ccc(S(=O)(=O)Nc4ncccn4)cc3)c3ccccc3c2=O)cc1C
inactive
CC(C)Sc1nc(N)nc2c1ncn2C1OC(CO)C(O)C1O (stereo not given)
inactive
COc1ccccc1NC(=O)C1=C(C)Nc2nc3ccccc3n2C1c1cccs1 (stereo not given)
active
COCc1cc(C)nc2sc(C(=O)NC3CCCCC3)c(N)c12
inactive
CC(C)(C)OC(=O)C[C@@H]1C/C=C\C[C@@H](CC(=O)N(CCO)Cc2ccccc2)C(=O)N[C@H](Cc2ccccc2)COC1=O
inactive
CCOc1ccc(C2C(C(=O)NC)=C(C)Nc3nc4ccccc4n32)cc1OC (stereo not given)
inactive
Cc1noc(C)c1C(=O)OC(C)C(=O)Nc1ccc2c(c1)OCO2 (stereo not given)
inactive

Task item: Can you look up the reported call for CCOc1ccc(-n2c(O)c(/C=N/c3ccnn3Cc3ccncc3)c3ccccc3c2=O)cc1 for me?
Reply: active

* * *

# test-protocol: A quantitative high throughput screen for small molecules that induce DNA re-replication in SW480 colon adenocarcinoma cells. Also: nearly all actives have a fitted effect of over 55% in size. Also: potency is read from the fitted curve at half-maximal effect.
# conditions: Hoechst DNA content imaging, 48 h; series mostly up to 46.1 µM
The whole screen tested about 340,000 compounds, of which about 6,200 (1.8%) were called active. About 10% were inconclusive and are not listed. The full list was thinned out, with actives kept by preference.
reported-property: Potency

Examples with their reported Potency follow.
CCn1c(=N)c(S(=O)(=O)c2ccc(F)cc2)cc2c(=O)n3ccccc3nc21
20.6 µM (active)
O=C1NCC(c2ccccc2)(c2ccccc2)C(=O)N1
inactive
NC(=O)C1CCN(C(=O)c2cc(S(=O)(=O)N3CCN(c4ccccc4)CC3)ccc2Cl)CC1
inactive
Cc1ccc(-n2c(=O)c(C#N)cc3c(=O)n4ccccc4nc32)cc1C
inactive

Now consider a different compound.
Task item: Which Potency value belongs to COc1ccc(NS(=O)(=O)c2cc(NC(=O)c3ccc(S(=O)(=O)N(C)C)cc3)ccc2N2CCOCC2)cc1 ?
Reply: inactive
